Values were extracted from paper PMC10797614.

Experiment: tandem ring-opening/ring-closing metathesis (ROM-RCM) of side-chain norbornene with two Glu allyl esters to bicyclic peptide; Hoveyda-Grubbs 2nd gen (M720), two portions (library procedure)
Conditions: the molecule shown is the open-chain precursor; 31-membered ring; 1,2-dichloroethane; resin; 70.0 °C
endpoint: ring closure, conversion by HPLC (% (semiquantitative, mass spectrometry))
Returns: the value as a bare number; no unit string appended.

INSERT INTO assay_data (entry_smiles, endpoint_value) VALUES
  ('C=CCOC(=O)CC[C@H](NC(=O)[C@H](CC(C)C)NC(=O)[C@H](C)NC(=O)[C@H](CCCCNC(=O)[C@H]1C[C@H]2C=C[C@@H]1C2)NC(=O)[C@@H](NC(=O)[C@@H](NC(=O)[C@@H]1CCCN1C(=O)[C@H](Cc1ccccc1)NC(=O)[C@H](CCC(=O)OCC=C)NC(=O)OCC1c2ccccc2-c2ccccc21)[C@@H](C)CC)C(C)C)C(N)=O', 79),
  ('C=CCOC(=O)CC[C@H](NC(=O)[C@H](CC(C)C)NC(=O)[C@H](C)NC(=O)[C@H](CCCCNC(=O)[C@@H]1C[C@H]2C=C[C@@H]1C2)NC(=O)[C@@H]1CCCN1C(=O)[C@@H](NC(=O)[C@@H](NC(=O)[C@H](Cc1ccccc1)NC(=O)[C@H](CCC(=O)OCC=C)NC(=O)OCC1c2ccccc2-c2ccccc21)[C@@H](C)CC)C(C)C)C(N)=O', 25),
  ('C=CCOC(=O)CC[C@H](NC(=O)[C@H](CC(C)C)NC(=O)[C@H](C)NC(=O)[C@H](CCCCNC(=O)[C@H]1C[C@H]2C=C[C@@H]1C2)NC(=O)[C@@H](NC(=O)[C@@H](NC(=O)[C@H](Cc1ccccc1)NC(=O)[C@@H]1CCCN1C(=O)[C@H](CCC(=O)OCC=C)NC(=O)OCC1c2ccccc2-c2ccccc21)[C@@H](C)CC)C(C)C)C(N)=O', 55);

Supply reported ring closure, conversion by HPLC (% (semiquantitative, mass spectrometry)) belonging to this compound: C=CCOC(=O)CC[C@H](NC(=O)[C@H](CC(C)C)NC(=O)[C@H](C)NC(=O)[C@H](CCCCNC(=O)[C@@H]1C[C@H]2C=C[C@@H]1C2)NC(=O)[C@@H](NC(=O)[C@@H](NC(=O)[C@@H]1CCCN1C(=O)[C@H](Cc1ccccc1)NC(=O)[C@H](CCC(=O)OCC=C)NC(=O)OCC1c2ccccc2-c2ccccc21)[C@@H](C)CC)C(C)C)C(N)=O
74

State its ring closure, conversion by HPLC (% (semiquantitative, mass spectrometry)): C=CCOC(=O)CC[C@H](NC(=O)[C@H](CC(C)C)NC(=O)[C@H](C)NC(=O)[C@H](CCCCNC(=O)[C@@H]1C[C@H]2C=C[C@@H]1C2)NC(=O)[C@@H](NC(=O)[C@@H](NC(=O)[C@H](Cc1ccccc1)NC(=O)[C@@H]1CCCN1C(=O)[C@H](CCC(=O)OCC=C)NC(=O)OCC1c2ccccc2-c2ccccc21)[C@@H](C)CC)C(C)C)C(N)=O
22

Look up ring closure, conversion by HPLC (% (semiquantitative, mass spectrometry)) of C=CCOC(=O)CC[C@H](NC(=O)[C@H](CC(C)C)NC(=O)[C@H](C)NC(=O)[C@H](CCCCNC(=O)[C@H]1C[C@H]2C=C[C@@H]1C2)NC(=O)[C@@H]1CCCN1C(=O)[C@@H](NC(=O)[C@@H](NC(=O)[C@H](Cc1ccccc1)NC(=O)[C@H](CCC(=O)OCC=C)NC(=O)OCC1c2ccccc2-c2ccccc21)[C@@H](C)CC)C(C)C)C(N)=O and report it.
34
